- target.or.system: CDK2/CycA2 (Homo sapiens)
- measurement.protocol: Determination of CDK activity (Caliper mobility shift, FAM-P8 peptide): CDK2
- Format: biochemical
- condition.context: CDK2/CycA2; read-out: CDK2 enzymatic inhibitory activity (IC50)
pIC50: −log10 of the molar value.
So I've got a bunch of compounds here, and I need their pIC50 values.

Which value of pIC50 has been reported for Cc1nc2c(F)cc(-c3nc(Nc4ccc(C=C5CCN(CCO)CC5)cn4)ncc3F)cc2n1C(C)C in the records?
> 7.00

Which value of pIC50 has been reported for Cc1nc2c(F)cc(-c3nc(Nc4ccc(C(C)C5CCNCC5)cn4)ncc3F)cc2n1C(C)C (single isomer, unassigned) [Example 19] in the records?
6.30 to 7.00

Which value of pIC50 has been reported for CCC(c1ccc(Nc2ncc(F)c(-c3cc(F)c4nc(C)n(C(C)C)c4c3)n2)nc1)N1CCN(CC)CC1 (single isomer, unassigned) [Example 3] in the records?
4.00 to 5.00

Which value of pIC50 has been reported for COCCN1CCC([C@H](C)c2ccc(Nc3ncc(F)c(-c4cc(F)c5nc(C)n(C(C)C)c5c4)n3)nc2)CC1 (single isomer, unassigned) in the records?
6.30 to 7.00

Which value of pIC50 has been reported for Cc1nc2c(F)cc(-c3nc(Nc4ccc([C@H](C)C5CCN(CC(F)(F)F)CC5)cn4)ncc3F)cc2n1C(C)C in the records?
> 7.00

Which value of pIC50 has been reported for CCN1CCC(C(OC(C)=O)c2ccc(Nc3ncc(F)c(-c4cc(F)c5nc(C)n(C(C)C)c5c4)n3)nc2)CC1 (single isomer, unassigned) [Example 71] in the records?
> 7.00

Which value of pIC50 has been reported for CCC(c1ccc(Nc2ncc(F)c(-c3cc(F)c4nc(C)n(C(C)C)c4c3)n2)nc1)N1CCN(CC)CC1 (racemic) [Example 1] in the records?
5.00 to 6.00
